The measured values listed here are drawn from ChEMBL document CHEMBL1201862.

tested on: RPMI-8226; assay: NCI tumour cell line growth inhibition, 48 h
The source made the active and inactive calls. Cut-off read from the data, not from the text of the source: active = GI50 up to about 1.1 µM and inactive = higher.
property name: GI50

IN: // query GI50 value for entry COc1ccc(/C=C/C2=NN(c3cccc(S(=O)(=O)O)c3)C3(C2)SCC(=O)N3c2nc3ccccc3s2)cc1 (stereo unspecified)
OUT: 22.8 µM (inactive)

###

tested on: SF-539; test: NCI tumour cell line growth inhibition, 48 h
The source made the active and inactive calls. No stated cut-off is given here; in the data, active = GI50 up to about 1.1 µM and inactive = higher.
The reply should be one of these categories: active, inactive

IN: Identify the outcome logged in this assay for the molecule shown: NC(=O)c1ncn(Cc2ccccc2)c1CNC(N)=S
OUT: inactive

###

system: Hs-578T; assay: NCI tumour cell line growth inhibition, 48 h
Active and inactive are the calls of the source. Rule as the data show it: active = GI50 up to about 1.1 µM and inactive = higher.
property name: GI50

1) COc1ccc(/C=C/C2=NN(c3cccc(S(=O)(=O)O)c3)C3(C2)SCC(=O)N3c2nc3ccccc3s2)cc1 (stereo not drawn)
> 100 µM (inactive)

IN: Fill blank: measured GI50 of the molecule C[C@]12CC[C@H]3[C@@H](CCC4=CC(=O)CC[C@@H]43)[C@@H]1CC[C@]2(O)C(N)=O is ____.
OUT: > 100 µM (inactive)

IN: Can you check COc1ccc(-c2sc(Br)c3c2C(=O)C2OC(=O)NC32)cc1OC (stereo not drawn) next?
OUT: > 100 µM (inactive)

###

test system: LXFL 529; assay: NCI tumour cell line growth inhibition, 48 h
Calls of active or inactive are those of the source. Rule as the data show it: active = GI50 up to about 1.1 µM and inactive = higher.
Pick one and only one: true (1) for active, false (0) for inactive

Example entries and their recorded answers appear below.
1. [O-][n+]1c2cc3c(cc2[n+]([O-])c2c(O)cccc21)CN(CCN1CCOCC1)C3
false (0)
2. O=C(CCC(=O)Nc1ccc(Cl)c(Cl)c1)CC(=O)c1ccc2ccccc2c1
false (0)
3. CN(C)c1ccc(C(=C2C=CC(=[N+](C)C)C=C2)c2ccc(N(C)C)cc2)cc1
true (1)
4. COc1ccc2[nH]c3c(C)c4c(c(C)c3c2c1)CN(C)C=C4
true (1)
5. O=C(c1ccccc1)c1c(CC(O)c2ccncc2)n(C(=O)c2ccccc2)c2ccccc12 (configuration not stated)
false (0)

IN: Assay outcome for CCOC1c2cc(OC)c(OC)cc2-c2ccc3ccccc3c2N1C (configuration not stated) : what was it?
OUT: false (0)

IN: Try this molecule next: O=C(c1ccccc1)C(c1ccccc1)C1(O)C(=O)Nc2ccc([N+](=O)[O-])cc21 (configuration not stated)
OUT: false (0)

IN: Next molecule up: O=Cc1cc2c(cc1-c1cc3c(cc1C=O)OCO3)OCO2
OUT: false (0)

IN: Further, for Cc1ccc(C)c(NC(=O)/C(=N\NC(N)=S)C(C#N)c2ccccc2)c1 (configuration not stated) ?
OUT: false (0)

IN: Queued: Clc1ccc2ns[s+]c2c1
OUT: true (1)

IN: Input COC(=O)C12C3C4C1C1C2C3C41C(=O)N(C(C)C)C(C)C (configuration not stated)
OUT: false (0)

IN: Next molecule: C/C(=N\NC(=O)C[N+](C)(C)C)c1sc(-c2cccnc2)nc1C
OUT: false (0)

###

Measured GI50 by item
tested on: UACC-257; experiment: NCI tumour cell line growth inhibition, 48 h
Active and inactive are the calls of the source. Rule as the data show it: active = GI50 up to about 1.1 µM and inactive = higher.

Here are 9 compounds together with their reported answers.
1) NC(=O)NO [HYDROXYUREA]
1810 µM (inactive)
2) Cc1c(Cl)ccc2c1NC(=O)C2(O)CC(=O)c1ccc2ccccc2c1 (stereo not given)
55.8 µM (inactive)
3) C/C(Cc1ccc2c(c1)OCO2)=N\N=c1\sc2ccccc2n1C
> 100 µM (inactive)
4) CN1Cc2ccccc2C2(COc3ccccc3C2=O)C1 (stereo not given)
62.7 µM (inactive)
5) O=C(O)c1cc2ccccc2c(/N=N/c2ccc(S(=O)(=O)Nc3ncccn3)cc2)c1O
> 100 µM (inactive)
6) COc1cccc(-c2cc(O)c3cc(Cl)cnc3n2)c1
6.92 µM (inactive)
7) COC(=O)c1ccccc1C#CC#Cc1ccccc1C(=O)OC
> 10 µM (inactive)
8) CN1c2ccccc2S(=O)(=O)n2c(COc3ccccc3)nnc21
> 100 µM (inactive)
9) O=C1/C(=C/c2cc3c(=O)c4ccccc4sc3s2)NC(=S)N1c1ccccc1
> 100 µM (inactive)

Turning now to a further record.
IN: For the compound Cc1ccccc1/N=C/N(C)C , what GI50 is on record?
OUT: 22 µM (inactive)

###

system: HCC 2998; test: NCI tumour cell line growth inhibition, 48 h
Active and inactive are the calls of the source. Cut-off read from the data, not from the text of the source: active = GI50 up to about 1.1 µM and inactive = higher.
Assign a class; possible classes are true (active), false (inactive)

Look over these answered cases.
1) Cc1cccc(C)c1NC(=O)/C(Cl)=C(/Cl)C(=O)O
false
2) O=C(O)C1CSC2(CCCN(Cc3ccccc3)C2)N1 (stereo unspecified)
false
3) COc1cc(C(O)C(=O)c2nc3ccc([N+](=O)[O-])cc3nc2O)ccc1O (stereo unspecified)
false
4) COc1ccc(C2SCC(=O)N2c2ccc(-n3c(-c4ccccc4)nc4ccccc4c3=O)cc2)cc1OC (stereo unspecified)
false
5) COC1/C=C/C(C)C(C(C)C(OC)C(C)CCC(=O)C(C)C(CCC(=O)O)OC)OC(=O)/C=C/C=C(\C)CC(OC)CC2=CC(=O)O[C@@H](C(C)C(OC)CC(OC)/C=C/C(C)C(OC)C1)[C@H]2O (stereo partly specified)
true
6) COC(=O)C1C(/C=C/c2ccoc2)ON2CCC[C@@H]12 (stereo partly specified)
false
7) COc1cc(C2c3cc4c(cc3OC(C)(O)C2C)OCO4)cc(OC)c1OC (stereo unspecified)
true
8) CCOC(=O)CO/N=C1/C(=C2/C(=O)Nc3ccccc32)Nc2ccccc21
false
9) O=[N+]([O-])c1ccc2c(c1)=[N+]([O-])C1(CCCCC1)[N+]=2[O-]
false
10) C/N=C1\OC2=C3C(c4ccccc4)(O/C(=N/C)N(C)C3(c3ccccc3)OC2=O)N1C (stereo unspecified)
false

Continue with the compound presented below.
IN: For this compound, state the assay outcome: Cc1cccc2nc(-c3ccccc3)cc(=O)n12
OUT: false

###

tested on: MDA-MB-435; experiment: NCI tumour cell line growth inhibition, 48 h
Calls of active or inactive are those of the source. Rule as the data show it: active = GI50 up to about 1.1 µM and inactive = higher.
property name: GI50

Below, 3 molecules whose answers are already recorded.
1. Cc1cc(C#N)c(Nc2ccc(F)cc2[N+](=O)[O-])s1
> 100 µM (inactive)
2. Cc1ccc(Nc2cc(=O)[nH]c(=O)[nH]2)cc1CS
> 100 µM (inactive)
3. CC1=C(C(=O)NCC(C)O)CC(C(=O)NCC(C)O)=C(C)N1 (configuration not stated)
> 100 µM (inactive)

IN: Please report the recorded GI50 for C[C@]12CC[C@H]3[C@@H](CCC4=C/C(=N/OCCN5CCCCC5)CC[C@@]43C)[C@@H]1CC[C@@H]2O .
OUT: 7.66 µM (inactive)

IN: Another molecule to check: Cc1cc(Br)cc(C)c1NC(=O)C(=O)C1C(=O)C(CC2C(=O)c3ccccc3C2=O)C(=O)CC1(C)C (configuration not stated)
OUT: > 100 µM (inactive)

IN: Then what about the molecule CNc1ccc(C(=O)CC(O)CCC(C)C2OC(=O)CC(O)CC(=O)CC(O)CC(O)CC(O)CC(O)CC3(O)CC(O)C(C(=O)NCCN4CCOCC4)C(CC(OC4OC(C)C(O)C(N)C4O)\C=C/C=C\C=C/C=C/C=C/C=C\C=C/C2C)O3)cc1 (configuration not stated) ?
OUT: 1.56 µM (inactive)

IN: Please give the result for COC1=CCC2=C(CCN(C(=O)C3CCC3)C2Cc2ccc(OC)c(O)c2)C1 (configuration not stated) too.
OUT: 3.09 µM (inactive)

###

system: ACHN; assay: NCI tumour cell line growth inhibition, 48 h
The source made the active and inactive calls. Cut-off read from the data, not from the text of the source: active = GI50 up to about 1.1 µM and inactive = higher.
A correct response names exactly one class from active, inactive

IN: Hi, do you know how N=C(N)N/N=C/c1c(-c2ccc(Cl)cc2)nc2n1CCS2 came out in this test?
OUT: inactive

IN: Again, but for [N-]=[N+]=NI1OC(C(F)(F)F)(C(F)(F)F)c2ccccc21
OUT: inactive

IN: Input CCOP(=O)(OCC)C(c1ccc(F)cc1)N(C(=O)NC(F)(F)F)c1ccc(F)cc1 (centres undefined)
OUT: inactive

IN: Note, next up: CCOc1cc2c(c(OCC)c1O)CC[C@@H]1[C@@H]2CC[C@]2(C)[C@@H](O)CC[C@@H]12
OUT: active

IN: Check COc1cc(C(O)C(=O)c2nc3ccc([N+](=O)[O-])cc3nc2O)ccc1O (centres undefined) too.
OUT: inactive

IN: # iterate: CC(NNC(=O)c1ccncc1)c1ccc(Cl)c(Cl)c1 (centres undefined)
OUT: inactive

IN: Also need COC(=O)c1ccccc1C#CC#Cc1ccccc1C(=O)OC , thanks.
OUT: inactive

IN: Now give it for COc1ccc2c(c1)/C(=C\c1c(Cl)nc3n1CCS3)C(=O)N2 too.
OUT: inactive

IN: And the next one, O=C1NC2(CCCCC2)C(=O)N1CCN(CCCl)CCCl ?
OUT: inactive

IN: Continue with CCC/C(Cl)=N/OC(=O)Nc1cc(C(F)(F)F)ccc1OC
OUT: inactive

IN: Another compound: Cc1cc(C)c2c(=O)n(CC(O)CN3CCN(c4ncccn4)CC3)sc2n1 (centres undefined)
OUT: inactive

IN: Thanks! And O=Cc1cc2c(cc1-c1cc3c(cc1C=O)OCO3)OCO2 ?
OUT: inactive

IN: Let us now turn to Cc1ccc(Nc2cc(=O)[nH]c(=O)[nH]2)cc1CS
OUT: inactive
